test system: Enterococcus faecalis; experiment: Antibacterial activity against Enterococcus faecalis 7 by broth microdilution method; type: functional
Readout: MIC (mg/L)

[[record]]
mol_smiles = "O=CN(O)C[C@@H](CC1CCCC1)C(=O)N1CCC[C@H]1C(=O)NC(=O)OC1CCOCC1"
system_tested = "Enterococcus faecalis"
reported = 2

[[record]]
mol_smiles = "NC(=O)NC(=O)[C@@H]1CCCN1C(=O)[C@H](CC1CCCC1)CN(O)C=O"
system_tested = "Enterococcus faecalis"
reported = 4


1 = O=CN(O)C[C@@H](CC1CCCC1)C(=O)N1CCC[C@H]1C(=O)NC(=O)NCCCc1ccccc1
2 = O=CN(O)C[C@@H](CC1CCCC1)C(=O)N1CCC[C@H]1C(=O)NC(=O)C1CCC1
3 = O=CN(O)C[C@@H](CC1CCCC1)C(=O)N1CCC[C@H]1C(=O)NC(=O)NCc1ccccc1
Falling order of MIC, please. I would appreciate it if you listed the labels in the requested order. 2, 1, 3

A = O=CN(O)C[C@@H](CC1CCCC1)C(=O)N1CCC[C@H]1C(=O)NC(=O)OC1CCC1
B = CC(C)(C)C(=O)NC(=O)[C@@H]1CCCN1C(=O)[C@H](CC1CCCC1)CN(O)C=O
Lab log: flag the item ( A or B ) with the smaller MIC figure. // return label of chosen record A
(A: 1 mg/L, B: 4 mg/L)

I = O=CN(O)C[C@@H](CC1CCCC1)C(=O)N1CCC[C@H]1C(=O)NC(=O)NC1CCC1
II = CC(C)NC(=O)NC(=O)[C@@H]1CCCN1C(=O)[C@H](CC1CCCC1)CN(O)C=O
// compare: I vs II , metric MIC, want the smaller // output: label of the selected item I
(I: 1 mg/L, II: 4 mg/L)

* * *

experiment: Inhibition of Haemophilus influenzae PDF assessed as formate release from fMAS peptide substrate after 20 mins by formate dehydrogenase coupled assay
Readout: IC50 (nM)

1 = CNC(=O)NC(=O)[C@@H]1CCCN1C(=O)[C@H](CC1CCCC1)CN(O)C=O
2 = O=CN(O)C[C@@H](CC1CCCC1)C(=O)N1CCC[C@H]1C(=O)NC(=O)NCCO
Param pair: 1 , 2 . Output: the one whose IC50 is numerically greater. Record your answer as the label of the chosen record. 2

* * *

system: Haemophilus influenzae; test: Antibacterial activity against Haemophilus influenzae Q1 by broth microdilution method; assay type: functional
Readout: MIC (µg/mL)

[[record]]
mol_smiles = "O=CN(O)C[C@@H](CC1CCCC1)C(=O)N1CCC[C@H]1C(=O)NC(=O)NCCc1cnccn1"
readout = "MIC"
reported = 2


P = CC(C)(C)NC(=O)NC(=O)[C@@H]1CCCN1C(=O)[C@H](CC1CCCC1)CN(O)C=O
Q = CC(C)OC(=O)NC(=O)[C@@H]1CCCN1C(=O)[C@H](CC1CCCC1)CN(O)C=O
Select the item with the higher value of MIC from the options P and Q listed. // caller expects the label of the chosen entry P
(P: 1 µg/mL, Q: 0.25 µg/mL)

* * *

tested on: Enterococcus faecalis; assay: Antibacterial activity against Enterococcus faecalis 7 by broth microdilution method; assay type: functional
Readout: MIC

Known results for compounds:
[[record]]
mol_smiles = "O=CN(O)C[C@@H](CC1CCCC1)C(=O)N1CCC[C@H]1C(=O)NC(=O)NCCc1c[nH]cn1"
reported = "> 64 µg/mL"

[[record]]
mol_smiles = "O=CN(O)C[C@@H](CC1CCCC1)C(=O)N1CCC[C@H]1C(=O)NC(=O)OC1CCNCC1"
reported = "> 64 µg/mL"

[[record]]
mol_smiles = "CC(C)(C)NC(=O)NC(=O)[C@@H]1CCCN1C(=O)[C@H](CC1CCCC1)CN(O)C=O"
reported = "1 µg/mL"

[[record]]
mol_smiles = "O=CN(O)C[C@@H](CC1CCCC1)C(=O)N1CCC[C@H]1C(=O)NC(=O)NCCc1cccnc1"
reported = "> 64 µg/mL"

[[record]]
mol_smiles = "NC(=O)CCNC(=O)NC(=O)[C@@H]1CCCN1C(=O)[C@H](CC1CCCC1)CN(O)C=O"
reported = "> 64 µg/mL"


Shifting focus to the compound that follows.
Data point: NCCNC(=O)NC(=O)[C@@H]1CCCN1C(=O)[C@H](CC1CCCC1)CN(O)C=O ; MIC = > 64 µg/mL
